assay: Absorbed constituents and pharmacokinetics in rat plasma after Formula 9002A (UPLC-QTof-MS); conditions: SD, rat, in vivo, […]
RECORDED ENDPOINT: half-life (h)
The answer is to be given in h; state only the numeric part.

Ask | Please report the recorded half-life for OCc1ccc(O[C@@H]2O[C@H](CO)[C@@H](O)[C@H](O)[C@H]2O)cc1 .
Reply | 2.58

---

experiment: Absorbed constituents and pharmacokinetics in rat plasma after Formula 9002A (UPLC-QTof-MS); conditions: SD, rat, plasma, […]
RECORDED ENDPOINT: half-life (h)
The answer is to be given in h; state only the numeric part.

Ask | Please report the recorded half-life for OC[C@H]1O[C@@H](OCCc2ccc(O)cc2)[C@H](O)[C@@H](O)[C@@H]1O [salidroside] .
Reply | 2.12
